- assayed-target: T1, Ac-[residues removed]-NH2 (NPNA2 peptide) (Plasmodium falciparum (synthetic CSP …))
- T1 construct: also called 8-mer peptide; source: synthetic peptide; bought: Innopep Inc
- experiment-notes: ITC; peptide in the syringe, Fab (~10 uM) in the cell; DPBS, 25 °C; single-site binding model; triplicate, mean ± SD; No. of sites = peptide per Fab
- recorded-conditions: both partners purified
readout: stoichiometry N
Numbers only.

[
  {
    "binder": "Fab397 (Fab, V domains shown, also called mAb397; source: ExpiCHO cells, purified (HiTrap Protein G, SEC)) VH: EVQLVKSGGGLVKPGGSLRLSCAVSGFTFTDAWMSWVRQAPGKGPEWVGRIKSNPDGGTTDYAAPVRGRFTISRDDSKNTLYLQMNNLKTEDTAVYYCITDRDFYRSGGSWGQGTLVTV VL: DIVMTQSPLSLPVTPGEPASISCRSRQSLLYSNGDNYLDWYLQKPGQSPQLLIYLGSNRAPGVPDRFSGSGSGTDFTLKISRVEAEDVGVYYCMQTLQTPHTFGQGTKLEIK",
    "value-measured": 1.18
  }
]

With those in mind, consider the next binder.
[ask] Suppose we examine the binder Fab311 (Fab, V domains shown, also called mAb311; source: ExpiCHO cells, purified (HiTrap Protein G, SEC)) VH: EVQLVESGGGVVPPGRSLRLSCATSGFTFSNYGMHWVRQAPGKGLEWVAIIWYDGSRNFYAASVEGRFTISRDNSKNTLYLQMNSLRVEDTAVYYCARAAYYDTSGYGDYWGQGTLVTVSS VL: ESVLTQPPSVSGAPGQTVTISCTGGSSNIGAGYDVHWYQQLPGTAPKLLIYGNINRPSGVPDRFSGSKSGTSASLAITGLQAEDEADYYCQSYDRRLSGSWVFGGGTKLTVL ; what stoichiometry N value has been reported?
[reply] 1.27
